ASSAYED_TARGET: Probable G-protein coupled receptor 139 (Homo sapiens)
Sequence (Q6DWJ6 whole entry): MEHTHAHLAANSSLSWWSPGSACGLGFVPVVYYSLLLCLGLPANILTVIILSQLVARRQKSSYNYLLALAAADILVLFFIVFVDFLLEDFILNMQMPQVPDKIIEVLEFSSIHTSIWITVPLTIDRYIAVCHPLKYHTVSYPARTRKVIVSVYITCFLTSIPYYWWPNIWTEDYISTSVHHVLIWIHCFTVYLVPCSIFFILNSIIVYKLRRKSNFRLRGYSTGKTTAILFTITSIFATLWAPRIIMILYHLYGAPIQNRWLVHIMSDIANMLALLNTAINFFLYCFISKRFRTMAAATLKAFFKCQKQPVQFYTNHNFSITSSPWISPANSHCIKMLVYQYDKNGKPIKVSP
TEST_METHOD_NOTES: Agonist activity at human GPR139 expressed in CHO-K1 cells assessed as increase in calcium flux by calcium 5 dye based FLIPR assay
Type: functional, cell-based
MEASUREMENT_CONTEXT: cho-k1
PROPERTY: pEC50
Scale explanation: pEC50 corresponds to minus log10 of a concentration expressed in moles per litre.

Cc1cnn2c(=O)n(CC(=O)N[C@@H](C)c3ccc(Cl)c(F)c3)nc2c1; 9.00
C[C@H](NC(=O)Cn1nc2cccnn2c1=O)c1ccc(C2CC2)cc1; 8.00
C[C@H](NC(=O)Cn1nc2ncc(F)cn2c1=O)c1ccc(Cl)c(F)c1; 9.00
Cc1ccc([C@H](C)NC(=O)Cn2nc3ncccn3c2=O)cc1; 8.00

Report pEC50 for COc1cnc2nn(CC(=O)N[C@@H](C)c3ccc(OC(F)(F)F)cc3)c(=O)n2c1 please.
9.00

---

Recorded measurements of EC50, one per entry
ASSAYED_TARGET: UniProt:P0C0W8
TEST_METHOD_NOTES: Agonist activity at rat GPR139 expressed in CHO-K1 cells assessed as increase in calcium flux by calcium 5 dye based FLIPR assay
Assay type: cell-based

The following compounds have reported results that may help.
C[C@H](NC(=O)Cn1nc2cccc(N3CCNCC3)n2c1=O)c1ccc(OC(F)(F)F)cc1; ≥ 100 nM
Cc1ccn2c(=O)n(CC(=O)N[C@@H](C)c3ccc(OC(F)(F)F)cc3)nc2c1; < 1 nM
C[C@H](NC(=O)Cn1nc2cccc(N3CCN(C)CC3)n2c1=O)c1ccc(OC(F)(F)F)cc1; ≥ 100 nM
Cc1ccc([C@H](C)NC(=O)Cn2nc3c(Cl)cccn3c2=O)cc1; < 1 nM

Report EC50 for Cc1ccc2nn(CC(=O)N[C@@H](C)c3ccc(OC(F)(F)F)cc3)c(=O)n2c1 please.
< 1 nM

---

ASSAYED_TARGET: Probable G-protein coupled receptor 139 (Rattus norvegicus, UniProt P0C0W8)
Sequence (P0C0W8 whole entry): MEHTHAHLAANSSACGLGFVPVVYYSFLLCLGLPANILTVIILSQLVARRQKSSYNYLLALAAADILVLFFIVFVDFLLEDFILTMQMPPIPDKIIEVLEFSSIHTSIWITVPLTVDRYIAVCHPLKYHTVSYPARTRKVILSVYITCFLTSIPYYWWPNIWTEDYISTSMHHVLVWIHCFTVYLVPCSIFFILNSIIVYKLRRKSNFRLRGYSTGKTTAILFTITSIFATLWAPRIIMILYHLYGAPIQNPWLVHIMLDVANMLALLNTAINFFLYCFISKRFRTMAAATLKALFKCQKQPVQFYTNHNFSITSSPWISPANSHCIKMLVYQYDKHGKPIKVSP
TEST_METHOD_NOTES: Agonist activity at rat GPR139 expressed in CHO-K1 cells assessed as increase in calcium flux by calcium 5 dye based FLIPR assay
Format: cell-based
MEASUREMENT_CONTEXT: cho-k1
Recorded measurements of pEC50, one per entry
Scale explanation: pEC50 corresponds to minus log10 of a concentration expressed in moles per litre.

The following compounds have reported results that may help.
C[C@H](NC(=O)Cn1nc2ncc(Cl)cn2c1=O)c1ccc(Cl)c(F)c1; 9.00
C[C@H](NC(=O)Cn1nc2ccccn2c1=O)c1ccc(OC(F)F)cc1; 8.00

Now for a further compound.
Report pEC50 for Cc1ncc([C@H](C)NC(=O)Cn2nc3cc(Cl)ccn3c2=O)cc1F please.
9.00

---

ASSAYED_TARGET: Probable G-protein coupled receptor 139 (Homo sapiens)
TEST_METHOD_NOTES: Agonist activity at human GPR139 expressed in CHO-K1 cells assessed as increase in calcium flux by calcium 5 dye based FLIPR assay
Type: functional, cell-based
MEASUREMENT_CONTEXT: cho-k1
Recorded measurements of pEC50, one per entry
Scale explanation: pEC50 corresponds to minus log10 of a concentration expressed in moles per litre.

The following compounds have reported results that may help.
C[C@H](NC(=O)Cn1nc2ncccn2c1=O)c1ccc(OC(F)(F)F)cc1; 8.00
C[C@H](NC(=O)Cn1nc2cccnn2c1=O)c1ccc(OC(F)(F)F)cc1; 9.00
Cc1cnc2nn(CC(=O)N[C@@H](C)c3ccc(OC(F)(F)F)c(F)c3)c(=O)n2c1; 9.00
O=C(Cn1nc2ccccn2c1=O)NC(c1ccc(Cl)cc1)C1CC1 (stereo not given); 8.00

Now for a further compound.
Report pEC50 for C[C@H](NC(=O)Cn1nc2ncccn2c1=O)c1ccc(C2CC2)c(F)c1 please.
9.00
